- assayed system: AXL (human catalytic domain) (Homo sapiens)
- Construct: purchased Upstate Ltd. 14-512
- assay protocol: AXL (human catalytic domain) Enzyme Activity Assay (IMAP fluorescence polarisation)
- Assay type: biochemical
- condition context: further data set (WW-001 through WW-169, XX-001 through XX-469, YY-001 through YY-016, ZZ-001 through ZZ-003); 150 μM ATP
pIC50: −log10 of the molar value.
quantity measured: pIC50

* O=C(Nc1ccc(-c2cccc3nc(Nc4ccc(OCCN5CCCC5)cc4)nn23)cc1)c1ccccc1 [XX-221] | 5.00 to 6.00
* O=C(Nc1nc2cccc(-c3ccc4c(c3)OCO4)n2n1)C1CC1 [WW-049] | 6.00 to 7.00
* CN(C)CCNC(=O)c1ccc(Nc2nc3cccc(-c4ccc5occc5c4)n3n2)cc1 [XX-084] | ≥ 7.00
* Fc1ccc(Nc2nc3cccc(-c4ccc5c(c4)OCCO5)n3n2)cc1OCCN1CCCC1 [XX-134] | 6.00 to 7.00
* c1ccc(Cn2cc(-c3nccc4nc(Nc5ccc(OCCN6CCCC6)cc5)nn34)cn2)cc1 [YY-011] | 6.00 to 7.00
* CCn1cc(-c2cccc(-c3cccc4nc(Nc5ccc(OCCN6CCCC6)cc5)nn34)c2)cn1 [XX-172] | 6.00 to 7.00
* CCS(=O)(=O)n1cc(-c2cccc3nc(NC(=O)C4CC4)nn23)cn1 [WW-147] | 5.00 to 6.00
* Clc1ccc(-c2cccc3nc(Nc4ccc(OCCN5CCCC5)cc4)nn23)cc1Cl [XX-297] | 6.00 to 7.00
* COc1ccc(S(=O)(=O)Nc2ccc(-c3cccc4nc(Nc5ccc(OCCN6CCCC6)cc5)nn34)cc2)cc1 [XX-254] | 6.00 to 7.00
* COc1ccc(-c2cccc3nc(Nc4ccc(OCCN5CCCC5)cc4)nn23)cc1F [XX-240] | 6.00 to 7.00
* COc1cccc(Cn2cc(-c3cccc4nc(Nc5ccc(OCCN6CCCC6)cc5)nn34)cn2)c1 [XX-369] | 6.00 to 7.00
* Cc1cccc(S(=O)(=O)n2cc(-c3cccc4nc(Nc5ccc(OCCN6CCCC6)cc5)nn34)cn2)c1 [XX-377] | 6.00 to 7.00
* CN(C)CCOc1cccc(Nc2nc3cccc(-c4ccc5c(c4)OCCO5)n3n2)c1 [XX-074] | ≥ 7.00
* C[C@H](CN(C)C)Oc1ccc(Nc2nc3cccc(-c4ccc5c(c4)OCCO5)n3n2)cc1 [XX-155] | 6.00 to 7.00
* CC[C@H](C)Cn1cc(-c2cccc3nc(Nc4ccc(OCCN5CCCC5)cc4)nn23)cn1 [XX-320] | ≥ 7.00
* O=C(NCc1cccc(-c2cccc3nc(Nc4ccc(OCCN5CCCC5)cc4)nn23)c1)Nc1ccccc1 [XX-371] | 6.00 to 7.00
* OCc1ccc(-c2cccc3nc(Nc4ccc(OCCN5CCCC5)cc4)nn23)cc1 [XX-237] | 6.00 to 7.00

----------
- assayed system: AXL (human catalytic domain) (Homo sapiens, UniProt P30530)
- Construct: purchased Upstate Ltd. 14-512
- Sequence (P30530 473-894): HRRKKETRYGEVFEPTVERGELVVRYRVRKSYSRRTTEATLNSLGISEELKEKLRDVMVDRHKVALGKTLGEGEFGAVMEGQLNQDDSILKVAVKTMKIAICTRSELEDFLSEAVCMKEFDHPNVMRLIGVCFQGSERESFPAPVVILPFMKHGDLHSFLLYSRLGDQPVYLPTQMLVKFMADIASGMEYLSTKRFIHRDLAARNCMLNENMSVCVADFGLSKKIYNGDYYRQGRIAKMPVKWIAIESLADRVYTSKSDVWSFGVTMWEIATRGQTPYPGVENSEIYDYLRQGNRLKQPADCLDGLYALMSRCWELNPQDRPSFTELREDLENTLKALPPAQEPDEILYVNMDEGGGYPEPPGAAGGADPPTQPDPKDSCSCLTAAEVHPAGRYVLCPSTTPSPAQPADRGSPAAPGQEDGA
- assay protocol: AXL (human catalytic domain) Enzyme Activity Assay (IMAP fluorescence polarisation)
- Format: biochemical
- condition context: further data set (WW-001 through WW-169, XX-001 through XX-469, YY-001 through YY-016, ZZ-001 through ZZ-003); 150 μM ATP
quantity measured: IC50

• COc1ccc(-c2cccc3nc(Nc4ccc(N(C)C(=O)C(C)N5CCOCC5)cc4)nn23)cc1 (stereo not shown) = 0.1 to 1 µM
• Cc1nnc(SCCn2cc(-c3cccc4nc(Nc5ccc(OCCN6CCCC6)cc5)nn34)cn2)s1 = 0.1 to 1 µM
• CC(C)Cn1cc(-c2cccc3nc(NC(=O)C4CC4)nn23)cn1 = 1 to 10 µM
• COCC(=O)Nc1nc2cccc(-c3ccc(OC)cc3)n2n1 = 1 to 10 µM
• CS(=O)(=O)Nc1cccc(-c2cccc3nc(Nc4ccc(OCCN5CCCC5)cc4)nn23)c1 = 0.1 to 1 µM
• c1coc(-c2cccc3nc(Nc4ccc(OCCN5CCCC5)cc4)nn23)c1 = 0.1 to 1 µM
• CC(=O)Nc1cccc(-c2cccc3nc(Nc4ccc(OCCN5CCCC5)cc4)nn23)c1 = 0.1 to 1 µM
• c1cc(NCc2ncc[nH]2)cc(-c2cccc3nc(Nc4ccc(OCCN5CCCC5)cc4)nn23)c1 = 0.1 to 1 µM
• c1cc(-c2cnn(CC3CCCCC3)c2)n2nc(Nc3ccc(OCCN4CCCC4)cc3)nc2c1 = 0.1 to 1 µM
• CC(=O)Nc1ccc(-c2cccc3nc(Nc4ccc(OCCN5CCCC5)cc4)nn23)cc1 = 0.1 to 1 µM
• COc1ccc(-c2cccc3nc(NC(=O)C4CC4)nn23)cn1 = 1 to 10 µM
• O=C(Nc1nc2cccc(-c3ccco3)n2n1)C1CC1 = 1 to 10 µM
• Cn1nnnc1SCCn1cc(-c2cccc3nc(Nc4ccc(OCCN5CCCC5)cc4)nn23)cn1 = 1 to 10 µM
• CCN(CC)CCOc1cc(Nc2nc3cccc(-c4ccc5c(c4)OCCO5)n3n2)ccn1 = ≤ 0.1 µM
• CC(=O)Nc1ccc(-c2cccc3nc(NC(=O)C4CC4)nn23)cc1 = 1 to 10 µM
• COc1ccc(-c2cccc3nc(NC(=O)CC(C)C)nn23)cc1 = 1 to 10 µM
• CN(C)C(=O)c1ccc(-c2cccc3nc(NC(=O)C4CC4)nn23)cc1 = 1 to 10 µM
• c1cc(-c2ccsc2)n2nc(Nc3ccc(OCCN4CCCC4)cc3)nc2c1 = 0.1 to 1 µM
• O=C(Nc1nc2cccc(-c3cnn(Cc4ccccc4)c3)n2n1)C1CC1 = 1 to 10 µM

----------
- assayed system: AXL (human catalytic domain) (Homo sapiens, UniProt P30530)
- Construct: purchased Upstate Ltd. 14-512
- assay protocol: AXL (human catalytic domain) Enzyme Activity Assay (IMAP fluorescence polarisation)
- Format: biochemical
- condition context: further data set (WW-001 through WW-169, XX-001 through XX-469, YY-001 through YY-016, ZZ-001 through ZZ-003); 150 μM ATP
quantity measured: IC50

* Fc1ccc(-c2cccc(-c3cccc4nc(Nc5ccc(OCCN6CCCC6)cc5)nn34)c2)cc1 [XX-467] | 1000 to 10000 nM
* c1cc(-c2ccc3c(c2)OCCO3)n2nc(Nc3ccc(OCCN4CCCC4)nc3)nc2c1 [XX-102] | 100 to 1000 nM
* NC(=O)c1cccc(-c2cccc3nc(Nc4ccc(OCCN5CCCC5)cc4)nn23)c1 [XX-183] | 1000 to 10000 nM
* Clc1cc(Cl)cc(-c2cccc3nc(Nc4ccc(OCCN5CCCC5)cc4)nn23)c1 [XX-298] | 100 to 1000 nM
* NC(=O)Cn1cc(-c2cccc3nc(Nc4ccc(OCCN5CCCC5)cc4)nn23)cn1 [XX-342] | 1000 to 10000 nM
* Cc1nc(CNc2cccc(-c3cccc4nc(Nc5ccc(OCCN6CCCC6)cc5)nn34)c2)c(C)o1 [XX-397] | 100 to 1000 nM
* CNCCCOc1cccc(Nc2nc3cccc(-c4ccc5c(c4)OCCO5)n3n2)c1 [XX-069] | ≤ 100 nM
* O=C(Nc1ccc(-c2cccc3nc(Nc4ccc(OCCN5CCCC5)cc4)nn23)cc1)c1ccno1 [XX-250] | 100 to 1000 nM

----------
- assayed system: AXL (human catalytic domain) (Homo sapiens)
- Construct: purchased Upstate Ltd. 14-512
- assay protocol: AXL (human catalytic domain) Enzyme Activity Assay (IMAP fluorescence polarisation)
- Format: biochemical
- condition context: further data set (WW-001 through WW-169, XX-001 through XX-469, YY-001 through YY-016, ZZ-001 through ZZ-003); 150 μM ATP
- Experimental: Biological Methods AXL (human catalytic domain) Enzyme Activity Assay Reagents Kinase Assay Reaction Buffer: This consisted of 20 mM HEPES pH 7.0, 10 mM MgCl2, 1 mM DTT, […], 0.01% Triton X100 (v/v), and 0.01% BSA (w/v). All buffer components were purchased from Sigma-Aldrich at reagent grade or higher. […] ATP: Supplied by Sigma (product code A-7699). […] Final ATP concentration in the assay was 150 μM; this concentration represents the KM.ATP for this enzyme calculated in this assay. […]
pIC50: −log10 of the molar value.
quantity measured: pIC50

• COc1ccc(-c2cccc3nc(NC(=O)C4CC4)nn23)cc1F = 5.00 to 6.00
• CC(C)CC(=O)NCc1cccc(-c2cccc3nc(Nc4ccc(OCCN5CCCC5)cc4)nn23)c1 = 6.00 to 7.00
• COc1cccc(CS(=O)(=O)n2cc(-c3cccc4nc(Nc5ccc(OCCN6CCCC6)cc5)nn34)cn2)c1 = 6.00 to 7.00
• O=C(Nc1nc2cccc(-c3ccc4ccccc4c3)n2n1)C1CC1 = 6.00 to 7.00
• COCCNCCOc1ccc(Nc2nc3cccc(-c4ccc(OC)cc4)n3n2)cc1 = 6.00 to 7.00
• O=C(Nc1cccc(-c2cccc3nc(Nc4ccc(OCCN5CCCC5)cc4)nn23)c1)c1ccccc1 = 6.00 to 7.00
• COc1ccc(-c2cccc3nc(NC(=O)C4CC4(F)F)nn23)cc1 (stereo not drawn) = 5.00 to 6.00
• CCN(CC)CCNc1ccc(-c2cccc3nc(NC(=O)C4CC4)nn23)cc1 = 5.00 to 6.00
• c1ccc(Cn2cc(-c3cccc4nc(Nc5ccc(OCCCN6CCCCC6)cc5)nn34)cn2)cc1 = 6.00 to 7.00
